# Assayed Target: T1, BCMA (Homo sapiens (Human), UniProt Q02223 1-54, limits assumed)
# T1 sequence: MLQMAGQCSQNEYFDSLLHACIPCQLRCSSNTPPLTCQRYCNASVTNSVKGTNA
# Assay Notes: ELISA, format not described
# Set-up: unit not given here
Test Readout: ELISA_avg

Data request: Item D-domain SEQ ID NO: 151 (designed binder) MGSWVEFDMRLQAILERLRALGGSEAELAAFEKEIAAFESELQAYKGKGNPEVEHLRDSAAYIRLMLQAYRHN has what recorded ELISA_avg?
Data returned: 23.5

Data request: Please answer likewise for D-domain SEQ ID NO: 339 (designed binder) MGSWYGFKWYLATIKKHLEALGGSEAELALFETEIATFELWLQDYKGKGNPEVEALRKEAAAIRDELQAYRHN
Data returned: 10.7

Data request: Please answer likewise for D-domain SEQ ID NO: 172 (designed binder) MGSWNEFRLRLWAITERLRALGGSEAELAAFEKEIAAFESELQAYKGKGNPEVECLRAEAAWIRTMLQAYRHN
Data returned: 3.87

Data origin, for the record: patent US20250026849A1
